Tested Target: NAMPT (nicotinamide phosphoribosyltransferase) (Homo sapiens)
Construct: recombinant, N-terminal His tag removed with thrombin
Sequence (P43490 whole entry): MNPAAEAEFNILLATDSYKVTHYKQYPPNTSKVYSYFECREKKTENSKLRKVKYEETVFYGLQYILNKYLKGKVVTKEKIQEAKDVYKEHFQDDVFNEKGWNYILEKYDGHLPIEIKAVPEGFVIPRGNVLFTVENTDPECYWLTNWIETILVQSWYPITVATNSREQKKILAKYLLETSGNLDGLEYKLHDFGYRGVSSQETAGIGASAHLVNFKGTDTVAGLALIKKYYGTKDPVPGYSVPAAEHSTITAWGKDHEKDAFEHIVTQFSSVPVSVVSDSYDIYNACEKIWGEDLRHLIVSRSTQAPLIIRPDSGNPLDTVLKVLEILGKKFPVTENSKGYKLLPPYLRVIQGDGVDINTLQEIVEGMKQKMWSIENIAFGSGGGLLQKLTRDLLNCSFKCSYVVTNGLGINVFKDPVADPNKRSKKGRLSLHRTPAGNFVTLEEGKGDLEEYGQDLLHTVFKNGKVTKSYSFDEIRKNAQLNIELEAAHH
Assay Explanation: spin desalting column with LC-MS detection of bound compound; EC50 from NMN production activation assay
Measured Endpoint: pEC50
Answers are plain numbers, as −log10 of the molar value.

Ask: # get_value(readout='pEC50', item= O=C(NCc1ccncc1)Nc1ccc(S(=O)(=O)N2CC3CCC(C2)O3)cc1 )
Reply: 6.43
